Where do these numbers come from? They come from the supplement of paper PMC12669797.

test system: ES2; assay: cell viability relative to DMSO control (MTS) (fraction of DMSO control); higher = more viable cells / less growth inhibition; settings: 10 µM; 48 h
Below, each entry is listed with its recorded cell viability.

Sample records with cell viability:
input: Record request: cell viability value, item C[C@@H]1C[C@@H]([C@H](O)CC2CC(=O)NC(=O)C2)C(=O)[C@@H](C)C1 [Cycloheximide]
output: 0.547

input: Record request: cell viability value, item `O=C1C2CCN(CC2)C1(CO)CO`
output: 1.01

input: Record request: cell viability value, item `C[C@@]1(CO)[C@H](O)CC[C@@]2(C)[C@H]1CC[C@H]1C[C@@H]3C[C@@]12CC[C@]3(O)CO`
output: 0.419

Pending compound:
input: Record request: cell viability value, item `C/C=C(/C)C(=O)O[C@H]1C(C)=C2[C@H]([C@@H]1OC(=O)CCCCCCC)[C@@](C)(OC(C)=O)C[C@H](OC(=O)CCC)[C@@]1(O)[C@H]2OC(=O)[C@@]1(C)O`
output: 0.505
